Data provenance is patent US10047105B2.

# Tested on: S. pneumoniae ATCC 51916
# measurement_description: MIC, S. pneumoniae
# Type: cell-based
# measurement_parameters: S. pneumoniae
metric_name: MIC Spn52 (µg/mL)

In [3]: df
Out[3]:
                                    molecule  metric_name  censor_symbol  value
 0  CCc1[nH]c2nc(Sc3cnc4nccnc4c3)nc(N3CC(CNC(=O)c4cn(C)nc4C(F)(F)F)C3)c2c1Cl    MIC Spn52              ≤    0.5
 1  CCc1[nH]c2nc(Sc3cnc4nccnc4c3)nc(N3CC(Oc4cccnc4)C3)c2c1Cl.O=C(O)C(F)(F)F.O=C(O)C(F)(F)F    MIC Spn52              =      1
 2  CCc1[nH]c2nc(Sc3nc(C(=O)NOC)cs3)nc(N3CCN(C(C)=O)CC3)c2c1Cl.O=C(O)C(F)(F)F    MIC Spn52              >     64
 3  CCc1[nH]c2nc(Sc3cnc4nccnc4c3)nc(N3CCC(N4CCOCC4)C3)c2c1Cl (stereo not drawn)    MIC Spn52              =      2
 4  CCOc1nc(Nc2cnc3c(cnn3C(C)C)c2)nc2[nH]c(CC)c(Br)c12.O=C(O)C(F)(F)F    MIC Spn52              =      8
 5  CCc1[nH]c2nc(Sc3nc(C(=O)O)cs3)nc(N(C)C)c2c1Cl.O=C(O)C(F)(F)F    MIC Spn52              >     64
 6  CCc1[nH]c2nc(Sc3nc(-c4nnn[nH]4)cs3)nc(N3CC(O)C3)c2c1Cl.Cl.Cl.Cl.Cl    MIC Spn52              >     64
 7  CCc1[nH]c2nc(Sc3ccc4c(N5CC(N)C5)cc(C(=O)O)nc4c3)nc(N3CC4C(N)C4C3)c2c1Cl (stereo not drawn)    MIC Spn52              >     64
 8  CCc1[nH]c2nc(Cc3cccnc3)nc(N3CCC(CN)CC3)c2c1Cl    MIC Spn52              >     64
 9  CCc1[nH]c2nc(Sc3cnc4nccnc4c3)nc(N3CC(N4CCCCC4)C3)c2c1Cl.O=C(O)C(F)(F)F.O=C(O)C(F)(F)F    MIC Spn52              =      8
10  CCc1[nH]c2nc(Sc3cnc4nccnc4c3)nc(N3CCC(N)C3)c2c1Cl (stereo not drawn)    MIC Spn52              =      2
11  CCc1[nH]c2nc(Sc3cnc4cccnc4n3)nc(N3CC(O)C3)c2c1Br    MIC Spn52              ≤    0.5
12  CCc1[nH]c2nc(Sc3cnc4nccnc4c3)nc(N3CC(C)(CN)C3)c2c1Cl.O=C(O)C(F)(F)F.O=C(O)C(F)(F)F    MIC Spn52              =     16
13  CCc1[nH]c2nc(Sc3cnc4nccnc4c3)nc(N3CC4CN(C(=O)OC(C)(C)C)C4C3)c2c1Cl (stereo not drawn)    MIC Spn52              =      8
14  CCc1[nH]c2nc(Sc3cnc4c(N)nc(N)nc4c3)nc(N3CC(C(=O)O)C3)c2c1Cl.O=C(O)C(F)(F)F.O=C(O)C(F)(F)F    MIC Spn52              >     64

###

# Test system: S. pneumoniae ATCC 51916
# measurement_description: MIC, S. pneumoniae
# Format: cell-based
# measurement_parameters: S. pneumoniae
Measured MIC Spn52 of individual entries
metric_name: MIC Spn52 (µg/mL)

In [3]: df
Out[3]:
                                    molecule  unit_annotation  censor_symbol  value
 0  CCc1[nH]c2nc(Nc3cnc4c(c3)nnn4C(C)C)nc(N3CC(O)C3)c2c1Br.O=C(O)C(F)(F)F [700,482]            µg/mL              >     64
 1  CCc1[nH]c2nc(Oc3cnc4ccoc4c3)nc(Oc3cnc4ccoc4c3)c2c1Cl.O=C(O)C(F)(F)F [700,650]            µg/mL              =      1
 2  CCc1[nH]c2nc(Sc3cnc4nccnc4c3)nc(N3CC(NC(=O)COC)C3)c2c1Cl [700,438]            µg/mL              =      1
 3  CCc1[nH]c2nc(Sc3cc(=O)n(CC(C)=O)c(=O)[nH]3)nc(N3CC(O)C3)c2c1Br [700,442]            µg/mL              =      2
 4  CCOc1nc(Oc2ccc3ccncc3c2)nc2[nH]c(CC)c(Cl)c12.O=C(O)C(F)(F)F [700,691]            µg/mL              >     64
 5  CCc1[nH]c2nc(Nc3ccc4c(N)nc(C)nc4c3)nc(N3CC(N)C3)c2c1Cl.O=C(O)C(F)(F)F.O=C(O)C(F)(F)F [700,531]            µg/mL              =      4
 6  CCc1[nH]c2nc(Sc3nc(C(=O)O)cs3)nc(NCCCNC(=N)N)c2c1Cl.O=C(O)C(F)(F)F [700,343]            µg/mL              >     64
 7  CCc1[nH]c2nc(Sc3cnc4c(C#N)cnn4c3)nc(N3CC[C@@H](N)C3)c2c1Cl [700,718]            µg/mL              =      8
 8  CCOc1nc(Sc2nc(C(=O)OC)c(C(C)C)s2)nc2[nH]c(CC)c(Cl)c12 [700,304]            µg/mL              =     32
 9  CCc1[nH]c2nc(Sc3cnc4nccnc4c3)nc(N3CC(NS(C)(=O)=O)C3)c2c1Br [700,470]            µg/mL              =      1
10  CCOc1nc(Sc2nc(C(=O)N[C@H]3CCOC3=O)co2)nc2[nH]c(CC)c(Br)c12 [700,294]            µg/mL              >     64
11  CCOc1nc(Sc2cnc3cccnc3n2)nc2[nH]c(CC)c(Cl)c12 [700,298]            µg/mL              =      8
12  CCc1[nH]c2nc(Sc3nc(C(=O)NOC)cs3)nc(N3CCOCC3)c2c1Cl.O=C(O)C(F)(F)F [700,397]            µg/mL              >     64
13  CCc1nc2c(N(C)C)nc(Sc3cccc(C(=O)O)c3)nc2[nH]1.O=C(O)C(F)(F)F [700,220]            µg/mL              =     64
14  CCc1[nH]c2nc(Nc3cnc4c(c3)nnn4C(C)C)nc(N3CC(N)C3)c2c1Br.O=C(O)C(F)(F)F.O=C(O)C(F)(F)F [700,484]            µg/mL              =      8
15  Cc1[nH]c2nc(Sc3cc(=O)[nH]c(=O)[nH]3)nc(N3CC(O)C3)c2c1Br [700,362]            µg/mL              >     64
16  CCc1[nH]c2nc(Sc3cnc4nccnc4c3)nc(N3CCN(CCN)CC3)c2c1Cl.O=C(O)C(F)(F)F [700,444]            µg/mL              =      8
17  CCc1[nH]c2nc(Sc3ccc4nc(C)cc(C(=O)O)c4c3)nc(N3CC[C@@H](N)C3)c2c1Cl [700,708]            µg/mL              >     64
18  CCc1[nH]c2nc(Sc3cccnc3)nc(Cl)c2c1Br.O=C(O)C(F)(F)F [700,267]            µg/mL              =     16
19  CCc1[nH]c2nc(Sc3cnc4nccnc4c3)nc(N3CC(CNS(C)(=O)=O)C3)c2c1Cl [700,487]            µg/mL              ≤    0.5
20  CCc1[nH]c2nc(Sc3cccnc3)nc(NCCCn3ccnc3)c2c1Br.O=C(O)C(F)(F)F.O=C(O)C(F)(F)F [700,269]            µg/mL              =     16
21  CCOc1nc(Sc2nc(C(=O)O)co2)nc2[nH]c(CC)c(Br)c12 [700,292]            µg/mL              >     64
22  CCc1[nH]c2nc(Sc3cnc4nccnc4c3)nc(N3CC(N4CCN(C(=O)OC(C)(C)C)CC4)C3)c2c1Cl.O=C(O)C(F)(F)F.O=C(O)C(F)(F)F [700,671]            µg/mL              =     32
23  CCc1[nH]c2nc(Sc3cc(=O)[nH]c(=O)[nH]3)nc(N3CC(O)C3)c2c1Br [700,360]            µg/mL              =      2
24  CCc1[nH]c2nc(Sc3cnc4nccnc4c3)nc(N3CC(NC(=O)COn4nnc5ccccc54)C3)c2c1Cl [700,506]            µg/mL              =      1
25  CCc1[nH]c2nc(Sc3cnc4ccoc4c3)nc(N3CC4CNC4C3)c2c1Br.O=C(O)C(F)(F)F (stereo not shown) [700,680]            µg/mL              =     64
26  CCc1[nH]c2nc(Sc3cc(=O)n(CC(=O)O)c(=O)[nH]3)nc(N3CC(O)C3)c2c1Br [700,402]            µg/mL              >     64
27  CCc1[nH]c2nc(Sc3nc(C(=O)O)c(Cl)s3)nc(N3CCC(N)C3)c2c1Cl (stereo not shown) [700,559]            µg/mL              >     64
28  CCc1[nH]c2nc(Sc3cccc(NC(=O)OC)c3)nc(NC[C@H](C)O)c2c1Br [700,295]            µg/mL              =     32
29  CCc1[nH]c2nc(Sc3cccc(CC(=O)O)c3)nc(Cl)c2c1Br [700,307]            µg/mL              =     64
30  CCc1[nH]c2nc(Sc3ccc4nc[nH]c(=O)c4c3)nc(N3CC(N)C3)c2c1Cl.O=C(O)C(F)(F)F [700,694]            µg/mL              =      8
